ASSAY_METHOD_TEXT: Evaluation of maximum absorption wavelength (absorption spectrum in tetrahydrofuran solution)
Format: physicochemical
EXPERIMENTAL_CONTEXT: 1×10^−6 mol/L, optical path length 10 mm (Table 7)
READOUT_KIND: Molar light absorption coefficient

Here is how some molecules turned out for Molar light absorption coefficient.
>  <MOLECULE>
CC1(CC#N)Nc2cccc3c(N=Nc4ccc(N=Nc5ccccc5Cl)c5ccccc45)ccc(c23)N1 (stereo not shown)

>  <Molar light absorption coefficient>
34,100 L · mol^−1 · cm^−1

$$$$
>  <MOLECULE>
CC(C)NC(=O)OCC1(C)Nc2cccc3c(N=Nc4ccc(N=Nc5ccccc5Cl)c5ccccc45)ccc(c23)N1 (stereo not shown)

>  <Molar light absorption coefficient>
33,900 L · mol^−1 · cm^−1

$$$$

Suppose we examine the molecule CC1(C)Nc2cccc3c(N=Nc4ccc(N=Nc5ccccc5C(=O)c5ccccc5)c5ccccc45)ccc(c23)N1 ; what Molar light absorption coefficient value has been reported? 35,700 L · mol^−1 · cm^−1

Need Molar light absorption coefficient, item CC1(C)Nc2cccc3c(N=Nc4ccc(N=Nc5ccccc5[N+](=O)[O-])c5ccccc45)ccc(c23)N1 30,100 L · mol^−1 · cm^−1

----------
# Lookup of reported Residual rate of compound keyed by entry
ASSAY_METHOD_TEXT: Evaluation of heat stability (heat resistance), powder heated at 180° C. for 5 minutes
Type: physicochemical
EXPERIMENTAL_CONTEXT: oven 180° C. for 5 minutes, A/A0×100, absorbance in tetrahydrofuran
All answers are understood in %, so give the number only.

Example results:
>  <MOLECULE>
COC(=O)c1ccccc1N=Nc1ccc(N=Nc2ccc3c4c(cccc24)NC(C)(C)N3)c2ccccc12 [(1-40)]

>  <Residual rate of compound (%)>
80

$$$$
>  <MOLECULE>
CCCC1(C)Nc2cccc3c(N=Nc4ccc(N=Nc5ccccc5Cl)c5ccccc45)ccc(c23)N1 (stereo not shown) [Compound (1-3)]

>  <Residual rate of compound (%)>
82

$$$$
>  <MOLECULE>
CC1(C)Nc2cccc3c(N=Nc4ccc(N=Nc5ccccc5C(=O)c5ccccc5)c5ccccc45)ccc(c23)N1 [(1-59)]

>  <Residual rate of compound (%)>
82

$$$$

Here's the next entry for you.
Residual rate of compound for CC(C)(C)C1(C)Nc2cccc3c(N=Nc4ccc(N=Nc5ccccc5Cl)c5ccccc45)ccc(c23)N1 (stereo not shown) [(1-8)] ? 81
